This collection of values is drawn from ChEMBL document CHEMBL4428073.

- target-entity: Nitric oxide synthase, inducible (Mus musculus, UniProt P29477)
- Sequence (P29477 whole entry): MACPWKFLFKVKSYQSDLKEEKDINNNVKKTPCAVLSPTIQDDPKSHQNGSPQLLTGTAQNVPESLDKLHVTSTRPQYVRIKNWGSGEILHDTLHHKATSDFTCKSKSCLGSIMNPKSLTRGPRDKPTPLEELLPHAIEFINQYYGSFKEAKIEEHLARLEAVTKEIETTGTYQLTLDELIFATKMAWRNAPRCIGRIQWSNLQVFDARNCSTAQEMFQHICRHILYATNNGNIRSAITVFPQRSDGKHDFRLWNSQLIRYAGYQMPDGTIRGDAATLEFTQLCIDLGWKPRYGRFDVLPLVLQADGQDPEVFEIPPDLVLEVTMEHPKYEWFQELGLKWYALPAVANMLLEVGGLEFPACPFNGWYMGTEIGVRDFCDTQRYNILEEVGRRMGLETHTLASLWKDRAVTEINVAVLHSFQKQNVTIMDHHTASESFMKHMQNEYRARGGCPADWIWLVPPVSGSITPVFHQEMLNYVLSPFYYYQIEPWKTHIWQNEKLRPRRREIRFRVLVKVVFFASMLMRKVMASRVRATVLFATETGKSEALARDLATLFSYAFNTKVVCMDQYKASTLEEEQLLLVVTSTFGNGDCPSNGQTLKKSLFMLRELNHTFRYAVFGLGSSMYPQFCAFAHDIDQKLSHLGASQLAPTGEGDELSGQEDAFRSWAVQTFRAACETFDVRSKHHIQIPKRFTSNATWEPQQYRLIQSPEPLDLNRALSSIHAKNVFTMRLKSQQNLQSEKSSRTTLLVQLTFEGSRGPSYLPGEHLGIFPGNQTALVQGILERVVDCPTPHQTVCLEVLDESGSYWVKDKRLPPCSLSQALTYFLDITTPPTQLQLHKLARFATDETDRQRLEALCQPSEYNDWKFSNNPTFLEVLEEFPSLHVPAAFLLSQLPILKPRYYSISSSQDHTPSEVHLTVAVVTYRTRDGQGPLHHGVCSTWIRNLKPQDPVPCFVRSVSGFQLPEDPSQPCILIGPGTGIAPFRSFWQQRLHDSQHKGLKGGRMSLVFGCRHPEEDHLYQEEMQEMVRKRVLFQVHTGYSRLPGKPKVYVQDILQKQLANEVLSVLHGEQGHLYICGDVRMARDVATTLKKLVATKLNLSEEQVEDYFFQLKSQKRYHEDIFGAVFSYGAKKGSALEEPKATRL
- procedure-details: Prodrug activation in LPS-stimulated mouse […] cells assessed as iNOS-mediated Nomega-hydroxy-L-arginine formation by measuring increase in NO release at 1 mM incubated for 2.5 hrs by Hoechst 33342/DAF-FM-DA staining based fluorescence microscopic analysis
- stated-conditions: 1000 µM

chemical-smiles: CC(=O)OC[C@H]1O[C@@H](O/N=C(\N)NCCC[C@H](N)C(=O)O)[C@H](OC(C)=O)[C@@H](OC(C)=O)[C@H]1OC(C)=O.Cl.Cl
target-entity: Nitric oxide synthase, inducible (Mus musculus, UniProt P29477)
Drug metabolism: Metabolite_Notdetected

chemical-smiles: CCOC(=O)[C@@H](N)CCCN/C(N)=N/O[C@@H]1O[C@H](CO)[C@H](O)[C@H](O)[C@H]1O.Cl.Cl
target-entity: Nitric oxide synthase, inducible (Mus musculus, UniProt P29477)
Drug metabolism: Metabolite_Notdetected

chemical-smiles: N/C(=N\O[C@@H]1O[C@H](CO)[C@H](O)[C@H](O)[C@H]1O)NCCC[C@H](N)C(=O)[O-].[Na+]
target-entity: Nitric oxide synthase, inducible (Mus musculus, UniProt P29477)
Drug metabolism: Metabolite_Notdetected

###

- target-entity: Nitric oxide synthase, inducible (Mus musculus)
- procedure-details: Prodrug activation in LPS-stimulated mouse […] cells assessed as iNOS-mediated Nomega-hydroxy-L-arginine formation by measuring increase in NO release at 1 mM incubated for 2.5 hrs by Hoechst 33342/DAF-FM-DA staining based fluorescence microscopic analysis
- stated-conditions: 1000 µM
observed-property: Drug metabolism

chemical-smiles: CCOC(=O)[C@@H](N)CCCN/C(N)=N/O[C@@H]1O[C@H](COC(C)=O)[C@@H](OC(C)=O)[C@H](OC(C)=O)[C@H]1OC(C)=O.Cl.Cl
value-observed: Metabolite_Detected

chemical-smiles: N/C(=N\O[C@@H]1O[C@H](CO)[C@@H](O)[C@H](O)[C@H]1O)NCCC[C@H](N)C(=O)[O-].[Na+]
value-observed: Metabolite_Detected

chemical-smiles: CC(=O)OC[C@H]1O[C@@H](O/N=C(\N)NCCC[C@H](N)C(=O)O)[C@H](OC(C)=O)[C@@H](OC(C)=O)[C@@H]1OC(C)=O.Cl.Cl
value-observed: Metabolite_Detected
